- Assay text: Clearance in cynomolgus monkey
- Type: ADME, Macaca fascicularis
- Condition description: in vivo
Measured attribute: clearance (mL/min/kg)
Form entry: value (mL/min/kg) — number only.

input: Looking for the measured clearance of COc1cc(-c2ncc(COc3cccc([C@@H](CC(=O)O)C4CC4)c3)nc2CC(C)C)c(F)cn1 , can you help?
output: 2.19

====

Please respond with reported log10 EC50 for every item in the list.
- Measured on: Free fatty acid receptor 1 (Rattus norvegicus, UniProt Q8K3T4)
- Sequence (Q8K3T4 whole entry): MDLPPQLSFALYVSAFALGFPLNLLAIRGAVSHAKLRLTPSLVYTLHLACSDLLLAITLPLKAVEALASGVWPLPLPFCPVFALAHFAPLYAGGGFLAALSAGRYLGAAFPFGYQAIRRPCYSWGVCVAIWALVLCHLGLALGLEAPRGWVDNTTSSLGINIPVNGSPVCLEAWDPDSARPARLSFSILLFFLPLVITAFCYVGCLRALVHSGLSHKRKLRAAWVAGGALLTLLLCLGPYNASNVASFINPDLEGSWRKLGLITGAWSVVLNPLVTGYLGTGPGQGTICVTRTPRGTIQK
- Assay text: Agonist activity at rat GPR40 transfected in HEK293 cells assessed as increase in intracellular calcium level incubated for 1 hr by Fluo-8 dye based fluorescence analysis
- Format: functional, cell-based
Recall that a logarithmic scale is used here: each number is log10 of EC50 in nM.

input: What value of log10 EC50 has been reported for the following compound? COc1ccc(F)c(-c2ncc(COc3cccc([C@@H](CC(=O)O)C4CC4)c3)nc2C2=CCCC2(C)C)c1
output: 2.30

input: Any idea what log10 EC50 was measured for COc1ccc(F)c(-c2ncc(COc3cccc([C@@H](CC(=O)O)C4CC4)c3)cc2C2=CCCC2(C)C)c1 ?
output: 1.81

input: What value of measured log10 EC50 is listed for COc1ccc(F)c(-c2cnc(COc3cccc([C@@H](CC(=O)O)C4CC4)c3)cc2C2=CCCC2(C)C)c1 ?
output: 1.66

input: Look up log10 EC50 for this compound: COc1ccc(F)c(-c2ccc(COc3cccc([C@@H](CC(=O)O)C4CC4)c3)cc2C2=CCCC2(C)C)c1
output: 1.06

input: Data request, read-out log10 EC50, for COc1ccc(F)c(-c2ccc(COc3cccc([C@@H](CC(=O)O)C4CC4)c3)nc2C2=CCCC2(C)C)c1
output: 1.65

input: What value of measured log10 EC50 is listed for COc1cc(-c2ncc(COc3cccc([C@@H](CC(=O)O)C4CC4)c3)nc2CC(C)C)c(F)cn1 ?
output: 1.23

input: Look up log10 EC50: COc1ccc(F)c(-c2cnc(COc3cccc([C@@H](CC(=O)O)C4CC4)c3)nc2C2=CCCC2(C)C)c1
output: 1.85

input: // log10 EC50 lookup, key: CCCCc1nc(COc2cccc([C@@H](CC(=O)O)C3CC3)c2)cnc1-c1cc(OC)ccc1F
output: 1.45
